experiment: chemical genetic growth profiling, strain panel (AID 1159580);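 further: tested at 20 µM; growth read once vehicle control cultures reached saturation at 30 °C; 1 = growth at the plate median or of vehicle wells; lower values mean less growth of the strain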; details: S. cerevisiae deletion strains, growth OD, locus YMR231W, strain pep5, stronger effect = lower value
Screen size: about 5,500 compounds; about 2,000 (36%) were called active. Another 18% or so got no clear call; they are omitted. This is one part of the list.
Quantity: normalized growth
When you answer, write just the number.

# count of solved cases: 5
Task: GET /values?readout=normalized growth&item= CC1(C)C=CC(=O)[C@@]2(C)C1CC(=O)[C@]1(C)C2CC[C@@]2(C)[C@H](c3ccoc3)OC(=O)C3OC321 (some centres not stated)
Output: 1.01

Task: Quick check: normalized growth of CC1(C)O[C@H]2CC(=O)OC[C@]23[C@H]2CC[C@@]4(C)[C@H](c5ccoc5)OC(=O)[C@H]5O[C@]54[C@]2(C)C(=O)C[C@@H]13 ?
Output: 0.981

Task: What does the data say about its normalized growth? Entry: CC1(C)C2CC(=O)[C@]3(C)C(CC[C@@]4(C)[C@H](c5ccoc5)OC(=O)[C@H]5O[C@]543)[C@@]2(C)C(=O)C[C@H]1O (some centres not stated)
Output: 1.01

Task: Tell me the measured normalized growth of COc1cc2occc2c2oc(=O)ccc12 , please.
Output: 1.01

Task: Fill in the blank: the reported normalized growth of COC(=O)c1c(C)cc(OC)cc1O is ____.
Output: 1

Now take the following molecule into account.
Task: What value of normalized growth has been recorded for this entry: CCCCOc1cc(C(=O)NCCN(CC)CC)c2ccccc2n1
Output: 0.96

Values were extracted from PubChem BioAssay AID1159580.
